# SUBJECT OF TEST: T1, SLF1 tandem BRCT repeat (SLF1^tBRCT), residues 1-199, wild type (UniProt Q9BQI6 1-199)
# T1 construct: SMC5/6 localization factor 1 (SLF1), tandem BRCT repeat at the N-terminus, residues 1-199; coding region optimized for E. coli and synthesized; also called WT; SMC5/6 localization factor 1 tBRCT; source: E. coli BL21 Rosetta (DE3), purified (Ni-NTA, heparin, gel filtration)
# T1 sequence (looked up): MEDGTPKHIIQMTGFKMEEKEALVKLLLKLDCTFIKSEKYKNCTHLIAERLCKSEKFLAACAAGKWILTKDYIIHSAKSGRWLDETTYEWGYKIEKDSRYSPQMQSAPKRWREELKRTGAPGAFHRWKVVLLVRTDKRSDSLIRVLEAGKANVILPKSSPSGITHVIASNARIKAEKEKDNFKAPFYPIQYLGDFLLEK
# ASSAY NOTES: ITC; MicroCal ITC 200, 25 °C, 20 mM Tris (pH 7.5), 200 mM sodium chloride; 1.3 mM Rad18 peptide or 6 mM BRCTide injected into 0.1 mM (Rad18 peptides) or 0.2 mM (BRCTide) SLF1^tBRCT in the cell; three independent repeats
# CONDITIONS: both partners purified
Square brackets hold non-standard residues; d marks the D form. Ends that are not written are not given here. pS = N[C@@H](COP(=O)(O)O)C(=O)O
Please use rule met for Kd under 80 nM and rule not met for everything else, ties included.

* SDSCNS[pS]S[pS]DIIADLLE (peptide, UniProt Q9NS91 436-452, looked up, Rad18, human, residues 436-452, with R448A; source: synthetic peptide) [Rad18-2P-R448A peptide] | rule met
* GAAYDI[pS]QVFPFAKKK (source: synthetic peptide) [BRCTide, phosphopeptide optimized for binding to the BRCA1 tBRCT] | rule not met
* SDSCAS[pS]S[pS]DIIRDLLE (peptide, UniProt Q9NS91 436-452, looked up, Rad18, human, residues 436-452, with N440A; source: synthetic peptide) [Rad18-2P-N440A peptide] | rule met
* SDSCNS[pS]S[pS]DIIRALLE (peptide, UniProt Q9NS91 436-452, looked up, Rad18, human, residues 436-452, with D449A; source: synthetic peptide) [Rad18-2P-D449A peptide] | rule met

Would you kindly look at the next entry?
input: Below 80 nM on Kd? Entry SDSCNS[pS]SSDIIRDAAE (peptide, UniProt Q9NS91 436-452, looked up, Rad18, human, residues 436-452, with L450A/L451A; source: synthetic peptide) [Rad18-pS442-2LA peptide (L450A/L451A)]
output: rule not met
